System: MET
Settings: concentration: 1 μM, replicates: in singlicate; n = 1;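 also: KINOMEscan kinase panel screen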
Each record is given Met if its reported %Inh is strictly below 8%. Records at or above 8% are given Not met.

>  <molecular-string>
Cc1cccc(-c2nc(Nc3ccc4[nH]ncc4c3)c3ccccc3n2)n1

>  <classification>
Met

$$$$
>  <molecular-string>
Cc1cccc(-c2nc(Nc3cccc(C(N)=O)c3)c3ccccc3n2)n1

>  <classification>
Not met

$$$$
>  <molecular-string>
Fc1cccc(COc2nnc(-c3ccc4c(c3)CCO4)o2)c1

>  <classification>
Met

$$$$
>  <molecular-string>
O=c1cc(N2CCOCC2)nc2n(Cc3cccc(Cl)c3Cl)ccn12

>  <classification>
Met

$$$$
>  <molecular-string>
Cc1cc(NCC(c2ccccc2)c2ccccc2)nc(NCc2ccc(C(F)(F)F)cc2)n1

>  <classification>
Not met

$$$$

----------
Test system: CASK
Conditions: concentration: 1 μM, replicates: in singlicate; n = 1

>  <compound>
O=C(Nc1n[nH]c2cc(-c3cccc(F)c3F)ccc12)C1CC1 [SB-733894]

>  <%Inh>
30%

$$$$
>  <compound>
Cc1nnc(-c2ccc3occ(-c4ccc(S(C)=O)cc4)c3c2)[nH]1 (stereo not drawn)

>  <%Inh>
0%

$$$$
>  <compound>
CS(=O)(=O)c1ccc(-c2c(-c3ncn[nH]3)sc(N3CCOCC3)c2C#N)cc1

>  <%Inh>
0%

$$$$
>  <compound>
COc1ccccc1-c1ccc2c(NC(=O)C3CC3)n[nH]c2n1 [SB-711239]

>  <%Inh>
8%

$$$$
>  <compound>
Cc1ccc(-c2cc(-c3c[nH]nc3-c3ccccn3)ccn2)cc1 [GW684088]

>  <%Inh>
0%

$$$$
>  <compound>
COc1cc(Nc2nccc(N3CCC(NC(=O)Nc4cc(C)ccc4C)C3)n2)cc(OC)c1OC (stereo not drawn) [GSK1379762]

>  <%Inh>
42%

$$$$
>  <compound>
O=C(Nc1ccc2c(c1)OCO2)NC1CCN(c2ccnc(Nc3ccc(F)cc3)n2)C1 (stereo not drawn) [GSK1379724]

>  <%Inh>
21%

$$$$
>  <compound>
Cc1cccc(-c2nc(Nc3ccncc3)c3ccccc3n2)n1 [GW855857]

>  <%Inh>
0%

$$$$
>  <compound>
Cn1ccc2ncnc(Oc3ccc(Nc4nc5ccccc5[nH]4)cc3)c21

>  <%Inh>
0%

$$$$

----------
Quick reference: %Inh of the listed items.
System: MAP3K1
Settings: concentration: 1 μM, replicates: in singlicate; n = 1
measure: %Inh (%)

>  <molecular-string>
Cc1ccc(NC(=O)Nc2cc(C(C)(C)C)nn2-c2ccccc2)cc1

>  <study-system>
MAP3K1

>  <readout-value>
17

$$$$
>  <molecular-string>
CCn1c(-c2ccccn2)nc2cnccc21

>  <study-system>
MAP3K1

>  <readout-value>
8

$$$$
>  <molecular-string>
COc1cc2ncnc(Nc3ccc4nc(-c5ccccc5)[nH]c4c3)c2cc1OC.Cl

>  <study-system>
MAP3K1

>  <readout-value>
19

$$$$
>  <molecular-string>
Cl.c1ccc(-c2n[nH]cc2-c2ccnc(-c3ccc(CN4CCOCC4)cc3)c2)nc1

>  <study-system>
MAP3K1

>  <readout-value>
0

$$$$
>  <molecular-string>
Cc1cc(NCC(c2ccccc2)c2ccccc2)nc(NCc2ccc(C(F)(F)F)cc2)n1

>  <study-system>
MAP3K1

>  <readout-value>
0

$$$$
>  <molecular-string>
C[C@@H]1CCCCN1c1cc(-c2ccc3c(N)n[nH]c3c2)nc(N)n1

>  <study-system>
MAP3K1

>  <readout-value>
0

$$$$
>  <molecular-string>
O=C(Nc1ccccc1)Nc1cccc(Oc2ccc3nccn3n2)c1

>  <study-system>
MAP3K1

>  <readout-value>
0

$$$$
>  <molecular-string>
Cc1ccc(C(=O)Nc2ccc(Nc3ccnc4cc(-c5ccccn5)ccc34)cc2O)cc1.Cl

>  <study-system>
MAP3K1

>  <readout-value>
3

$$$$
>  <molecular-string>
COc1cccc(-c2cc(-c3c[nH]nc3-c3ccccn3)ccn2)c1

>  <study-system>
MAP3K1

>  <readout-value>
15

$$$$
>  <molecular-string>
Cc1cc(-c2ccc3c(c2)CC[C@@H](N[C@@H](C)c2ccccc2)C3)cnc1N.Cl

>  <study-system>
MAP3K1

>  <readout-value>
17

$$$$
>  <molecular-string>
COc1ccc2nc(-c3cccc(C)n3)nc(Nc3ccncc3)c2c1

>  <study-system>
MAP3K1

>  <readout-value>
22

$$$$
>  <molecular-string>
Fc1cc(Cl)ccc1Nc1ccnc2cc(I)ccc12

>  <study-system>
MAP3K1

>  <readout-value>
7

$$$$
>  <molecular-string>
Cc1cccc(-c2nc(Nc3ccc4[nH]ncc4c3)c3ccccc3n2)n1

>  <study-system>
MAP3K1

>  <readout-value>
38

$$$$
>  <molecular-string>
Cl.NC(=O)c1cccc(Nc2nccc(Nc3ccc(Oc4cccc(Cl)c4)c(Cl)c3)n2)c1

>  <study-system>
MAP3K1

>  <readout-value>
3

$$$$
>  <molecular-string>
COc1ccc(C2=C(Nc3cccc(C(=O)O)c3)C(=O)NC2=O)cc1

>  <study-system>
MAP3K1

>  <readout-value>
18

$$$$
>  <molecular-string>
CC(C)(C)c1ccc(C(=O)Nc2cn3cc(-c4cccnc4)ccc3n2)cc1

>  <study-system>
MAP3K1

>  <readout-value>
1

$$$$
>  <molecular-string>
CN1C(=O)C(Nc2ccc(Cl)c(C(=O)O)c2)=C(c2ccc(Cl)cc2)C1=O

>  <study-system>
MAP3K1

>  <readout-value>
16

$$$$
>  <molecular-string>
Cc1cccc(-c2nc(-c3ccc(S(C)(=O)=O)cc3)sc2-c2ccnc(NCCc3ccccc3)c2)c1

>  <study-system>
MAP3K1

>  <readout-value>
0

$$$$

Where do the numbers come from? From paper PMC5540273.
